From: paper PMC3020970

biological target: HIV-1 RT K70Q/Q151Mc (Human immunodeficiency virus type 1 group M subtype B, UniProt P03366, A661V/F676L/F715Y/K669Q/Q750M/V674I); construct: made in house; host or cells: Escherichia coli BL21; assay: Primer extension assay; format: biochemical; settings: without ATP, read-out: IC50 of TFV-DP, without ATP
pIC50: −log10 of the molar value.

- COMPOUND: "CC(Cn1cnc2c(N)ncnc21)OCP(=O)(O)OP(=O)(O)OP(=O)(O)O (stereo in doubt) [TFV-DP, tenofovir-diphosphate]"
  pIC50: 5.62

* * *

biological target: HIV-1 RT WT (Human immunodeficiency virus type 1 group M subtype B); construct: made in house; host or cells: Escherichia coli BL21; assay: Pre-steady state kinetics of binding and incorporation; type: biochemical; details: binding to RT-DNA complex
Measured Kd of individual entries
READOUT: Kd

- COMPOUND: "Nc1ncnc2c1ncn2[C@H]1C[C@H](O)[C@@H](COP(=O)(O)OP(=O)(O)OP(=O)(O)O)O1"
  ASSAYED SYSTEM: "HIV-1 RT WT (Human immunodeficiency virus type 1 group M subtype B)"
  READOUT: "Kd"
  RESULT: "2600 nM"
- COMPOUND: "CC(Cn1cnc2c(N)ncnc21)OCP(=O)(O)OP(=O)(O)OP(=O)(O)O (stereo in doubt) [TFV-DP, tenofovir-diphosphate]"
  ASSAYED SYSTEM: "HIV-1 RT WT (Human immunodeficiency virus type 1 group M subtype B)"
  READOUT: "Kd"
  RESULT: "1900 nM"
